molecular target: recombinant human IL-15 (Prospec cat no. CYT230) (human, UniProt P40933 49-162); test: ELISA, plate-bound human IL-15; printed as BC50 (half-maximal binding concentration)
Sequence (P40933 other isoform, or with tags, fused parts or gaps): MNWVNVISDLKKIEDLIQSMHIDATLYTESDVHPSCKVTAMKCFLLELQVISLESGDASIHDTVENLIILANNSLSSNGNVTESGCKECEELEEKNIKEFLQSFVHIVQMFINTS
EC50 by entry:
Dear colleague, please return just the value in nM, with no unit written.

Some solved cases for reference:
* huB-E29-7 (antibody, human IgG1, kappa, V domains shown, Humanized B-E29 variant; human IgG1 (G1m3) / kappa (Km3), produced in CHO cells; also called huVH5/huVL1) VH: EVRLMASGGGLVQPGGSLRLSCAASEFTFSNYAMSWVRQAPGKGLEWVATISRGGDYTYYPESVKGRFTISRDNSKNTLYLQMNSLRAEDTAVYYCARRVSFITGGWAMDYWGQGTLVTVSS VL: DVVMTQSPLSLPVTLGQPASISCRSSQSIVDITGNTYLEWYQQRPGQSPRLLIYKVFNRFSGVPDRFSGSGSGTDFTLKISRVEAEDVGVYYCFQDSFVPYTFGQGTKLEIKR | 0.84
* huB-E29-30 (antibody, human IgG1, kappa, V domains shown, Humanized B-E29 variant; human IgG1 (G1m3) / kappa (Km3), produced in CHO cells; also called huVH20/huVL1) VH: EVRLMASGGGLVQPGGSLRLSCAASEFTFSNYAMSWVRQAPGKGLEWVATISRGGDYTYYPDSVKGRFTISRDNSKNTLYLQMNSLRAEDTAVYYCARRVSFITGGYAMDYWGQGTLVTVSS VL: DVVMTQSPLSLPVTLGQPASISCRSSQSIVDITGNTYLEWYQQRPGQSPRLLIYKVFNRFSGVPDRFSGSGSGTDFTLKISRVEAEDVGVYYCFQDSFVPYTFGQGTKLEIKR | 5.87

Shift focus to the following entry.
# input binder: huB-E29-14 (antibody, human IgG1, kappa, V domains shown, Humanized B-E29 variant; human IgG1 (G1m3) / kappa (Km3), produced in CHO cells; also called huVH12/huVL1) VH: EVRLMASGGGLVQPGGSLRLSCAASEFTFSNYAMSWVRQAPGKGLEWVATISRGGDYTYYPDSVKGRFTISRDNSKNTLYLQMNSLRAEDTAVYYCARRVSMITGGWAFDYWGQGTLVTVSS VL: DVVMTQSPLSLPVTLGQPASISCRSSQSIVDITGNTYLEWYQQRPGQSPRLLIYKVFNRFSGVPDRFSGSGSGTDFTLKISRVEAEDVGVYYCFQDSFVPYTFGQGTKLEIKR ; wanted: its EC50 0.813
